# SUBJECT OF TEST: PDZRN4_1, Q6ZMN7
# Sequence (Q6ZMN7 213-318): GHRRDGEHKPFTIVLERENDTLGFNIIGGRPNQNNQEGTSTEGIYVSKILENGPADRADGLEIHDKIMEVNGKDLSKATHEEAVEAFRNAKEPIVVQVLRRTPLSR
# METHOD: holdup assay
# Set-up: key: below the threshold = too weak to quantify, mostly under pKd 3.1 to 4
# ASSAY CONDITIONS: plain residues with an end cap or a label only (N-terminal biotin on a linker: ado-ado)
MEASURED QUANTITY: pKd

Form field pKd, entry LKVPPEERLI [CRB2, Q5IJ48] : below the threshold

Form field pKd, entry VYPNAKVELV [PDLIM4_iso2, P50479;P50479-1] : below the threshold

Form field pKd, entry YNNCLEILRV [DCAF7, P61962] : below the threshold

Form field pKd, entry KKAPTNEFYA [SDC4, P31431] : below the threshold

Form field pKd, entry IPLDGETEEL [MYOZ1, Q9NP98] : below the threshold

---
Form field pKd, entry PEYLGLDVPV [ERBB2, P04626] : 3.52
